Compiled from multiple publications: pIC50 readings for CLK1 (Mus musculus).
Scale note: pIC50 = -log10(concentration in M).

1) CC(C)(C)c1ccc(C=NNC(N)=O)cc1; 5.72
2) O=c1[nH]c2ccc(O)cc2c2c1[nH]c1ccc(F)cc12; 7.11
3) C=CCc1[nH]c2c(Cl)cccc2c1C#N; 6.27

Would you kindly look at the next entry?
Please report the recorded pIC50 for `N#Cc1c(-c2ccccc2)[nH]c2c(Br)cccc12` .
7.17
